Measurement target: pEGFR, A431 cells (wildtype EGFR) (Homo sapiens)
Construct: pEGFR (Tyr1068) TR-FRET
Sequence (P00533 25-1210): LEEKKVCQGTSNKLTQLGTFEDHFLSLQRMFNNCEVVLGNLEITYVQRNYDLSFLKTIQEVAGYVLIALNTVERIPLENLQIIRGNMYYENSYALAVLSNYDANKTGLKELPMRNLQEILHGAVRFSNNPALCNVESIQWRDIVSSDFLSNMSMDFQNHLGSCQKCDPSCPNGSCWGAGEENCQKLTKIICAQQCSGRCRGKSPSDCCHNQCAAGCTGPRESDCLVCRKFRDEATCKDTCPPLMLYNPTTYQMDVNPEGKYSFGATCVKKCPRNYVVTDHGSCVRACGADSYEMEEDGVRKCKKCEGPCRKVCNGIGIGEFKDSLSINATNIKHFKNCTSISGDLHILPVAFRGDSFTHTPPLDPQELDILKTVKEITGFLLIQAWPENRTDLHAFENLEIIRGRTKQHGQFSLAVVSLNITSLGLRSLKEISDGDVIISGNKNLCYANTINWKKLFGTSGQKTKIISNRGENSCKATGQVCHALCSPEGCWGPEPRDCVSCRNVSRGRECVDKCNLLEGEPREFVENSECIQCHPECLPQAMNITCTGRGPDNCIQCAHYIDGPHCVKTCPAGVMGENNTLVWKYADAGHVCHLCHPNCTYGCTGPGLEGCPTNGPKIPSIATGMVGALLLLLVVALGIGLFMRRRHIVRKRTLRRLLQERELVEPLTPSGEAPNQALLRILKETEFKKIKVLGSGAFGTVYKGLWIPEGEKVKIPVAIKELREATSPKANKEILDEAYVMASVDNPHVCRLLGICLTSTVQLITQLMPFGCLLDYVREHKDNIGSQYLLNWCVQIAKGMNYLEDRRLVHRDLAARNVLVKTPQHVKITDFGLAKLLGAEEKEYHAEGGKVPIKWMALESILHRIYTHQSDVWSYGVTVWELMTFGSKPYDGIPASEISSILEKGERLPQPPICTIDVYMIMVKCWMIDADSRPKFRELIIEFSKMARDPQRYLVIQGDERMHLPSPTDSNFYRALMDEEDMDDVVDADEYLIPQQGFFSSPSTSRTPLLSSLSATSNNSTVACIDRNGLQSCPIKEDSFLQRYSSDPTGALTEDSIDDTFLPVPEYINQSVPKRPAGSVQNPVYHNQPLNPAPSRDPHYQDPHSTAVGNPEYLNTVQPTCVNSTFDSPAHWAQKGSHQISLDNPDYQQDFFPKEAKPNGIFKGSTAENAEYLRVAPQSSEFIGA
Procedure details: Cellular EGFR phosphorylation assay (LANCE Ultra TR-FRET) in A431 cells
Assay type: cell-based
Test conditions: 4 hours at 37° C., 40 ng/mL EGF for the final 10 minutes, read-out: A431 pEGFR IC50
IC50 strictly under 0.04 µM means label 1; at 0.04 µM or over means label 0.

Please review the following examples before continuing.
CCOc1nn(CCO)c2c1/C=C/c1n[nH]c3c(C)nc(cc13)-c1cnn(C)c1O[C@H](C)CN(C)C2
label 0
Cc1nn(CCO)c2c1/C=C/c1n[nH]c3cnc(cc13)-c1c(C)nn(C)c1O[C@@H](C)CN(C(C)C)C2
label 1
CCOc1nn(CCO)c2c1/C=C/c1n[nH]c3c(C)nc(cc13)-c1cnn(C)c1O[C@@H](C)CN(CC)C2
label 0
CCOc1nn([C@@H](C)CO)c2c1/C=C/c1n[nH]c3c(C)nc(cc13)-c1c(C)nn(C)c1O[C@@H](C)CNC2
label 1
CC(C)Oc1nn(CCO)c2c1/C=C/c1n[nH]c3cnc(cc13)-c1cnn(C)c1O[C@H](C)CN(C(C)C)C2
label 1

Now look at this entry.
# input Given "Cc1nn([C@@H](C)CO)c2c1/C=C/c1n[nH]c3c(C)nc(cc13)-c1c(C)nn(C)c1O[C@@H](C)CN(C)C2" , is recorded IC50 strictly lower than 0.04 µM?
# output label 1

====

Measurement target: EGFR (L858R) (Homo sapiens, UniProt P00533, L858R)
Sequence (P00533 25-1210 L858R): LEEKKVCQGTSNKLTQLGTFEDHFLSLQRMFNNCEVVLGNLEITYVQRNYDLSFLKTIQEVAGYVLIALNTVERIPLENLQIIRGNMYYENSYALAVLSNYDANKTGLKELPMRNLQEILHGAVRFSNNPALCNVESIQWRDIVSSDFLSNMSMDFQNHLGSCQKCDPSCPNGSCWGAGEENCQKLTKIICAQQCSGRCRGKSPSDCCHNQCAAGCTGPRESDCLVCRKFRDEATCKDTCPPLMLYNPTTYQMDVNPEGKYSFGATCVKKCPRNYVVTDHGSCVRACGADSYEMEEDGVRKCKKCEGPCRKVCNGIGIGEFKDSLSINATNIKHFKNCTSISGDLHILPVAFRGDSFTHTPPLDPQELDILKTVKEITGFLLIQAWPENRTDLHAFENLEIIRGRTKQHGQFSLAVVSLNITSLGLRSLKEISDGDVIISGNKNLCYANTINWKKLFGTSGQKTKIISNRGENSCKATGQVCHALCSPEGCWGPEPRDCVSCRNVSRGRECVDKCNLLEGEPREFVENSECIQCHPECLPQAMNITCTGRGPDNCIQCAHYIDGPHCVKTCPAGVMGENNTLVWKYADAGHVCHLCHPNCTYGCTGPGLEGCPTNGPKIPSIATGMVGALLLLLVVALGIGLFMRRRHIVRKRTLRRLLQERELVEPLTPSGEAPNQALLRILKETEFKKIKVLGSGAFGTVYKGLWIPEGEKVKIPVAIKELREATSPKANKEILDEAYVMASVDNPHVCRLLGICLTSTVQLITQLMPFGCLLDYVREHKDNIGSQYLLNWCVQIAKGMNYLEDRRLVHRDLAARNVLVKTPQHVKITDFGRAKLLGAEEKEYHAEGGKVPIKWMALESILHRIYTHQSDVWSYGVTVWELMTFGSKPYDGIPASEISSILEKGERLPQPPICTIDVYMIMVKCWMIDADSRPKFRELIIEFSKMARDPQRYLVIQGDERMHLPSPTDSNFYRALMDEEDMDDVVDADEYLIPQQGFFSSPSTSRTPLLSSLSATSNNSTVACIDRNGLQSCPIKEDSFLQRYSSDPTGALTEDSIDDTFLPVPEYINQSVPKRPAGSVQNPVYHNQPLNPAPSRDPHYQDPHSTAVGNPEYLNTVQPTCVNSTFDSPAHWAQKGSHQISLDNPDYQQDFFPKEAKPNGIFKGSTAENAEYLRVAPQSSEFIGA
Procedure details: HotSpot radiometric kinase assay, inhibition of EGFR L858R mutant
Test conditions: 33P ATP, room temperature, 120 m
For each entry below, report its pIC50 value.
Answers are plain numbers, as −log10 of the molar value.

These recorded examples may help you get a feel for the data.
CCOc1nn(CCO)c2c1/C=C/c1n[nH]c3c(C)nc(cc13)-c1cnn(C)c1O[C@@H](C)CN(CC)C2
8.70
CCN1Cc2c(c(C)nn2CCO)/C=C/c2n[nH]c3cnc(cc23)-c2c(C)nn(C)c2O[C@H](C)C1
9.60
CCOc1nn(CCO)c2c1/C=C/c1n[nH]c3cnc(cc13)-c1cnn(C)c1O[C@H](C)CN(C(C)C)C2
9.21
CC(C)Oc1nn(CCO)c2c1/C=C/c1n[nH]c3cnc(cc13)-c1cnn(C)c1O[C@@H](C)CN(C)C2
9.89

// for each compound below, give its pIC50
1. Cc1nn(CCO)c2c1/C=C/c1n[nH]c3cnc(cc13)-c1c(C)nn(C)c1O[C@H](C)CN(C(C)C)C2
2. CCOc1nn([C@@H](C)CO)c2c1/C=C/c1n[nH]c3cnc(cc13)-c1c(C)nn(C)c1O[C@@H](C)CN(C1CC1)C2
3. CCOc1nn([C@@H](C)CO)c2c1/C=C/c1n[nH]c3cnc(cc13)-c1c(C)nn(C)c1O[C@@H](C)CN(C)C2

# output
1: 9.26; 2: 9.44; 3: 9.05

// for each compound below, give its pIC50
1. CCOc1nn(CCO)c2c1/C=C/c1n[nH]c3cnc(cc13)-c1cnn(C)c1OC[C@H](C)N(CC)C2
2. CCOc1nn(CCO)c2c1/C=C/c1n[nH]c3cnc(cc13)-c1cnn(C)c1O[C@H](C)CN(CC)C2
3. CCOc1nn(CCO)c2c1/C=C/c1n[nH]c3c(C)nc(cc13)-c1c(C)nn(C)c1O[C@@H](C)CN(C)C2
4. CCOc1nn([C@@H](C)CO)c2c1/C=C/c1n[nH]c3cnc(cc13)-c1c(C)nn(C)c1O[C@@H](C)CN(CC)C2

# output
9.05
9.80
9.70
8.62

====

For each entry below, report its pIC50 value.
System: BaF3 cells with engineered EGFR d746-750/T790M
Procedure details: 3-Day CellTiter Glo (CTG) cell proliferation assay, BaF3 EGFR d746-750/T790M
Type: cell-based
Test conditions: Mus musculus; BaF3 EGFR d746-750/T790M cells, 3-day CTG proliferation, 72 hours
Answers are plain numbers, as −log10 of the molar value.

These recorded examples may help you get a feel for the data.
CC(C)Oc1nn(CCO)c2c1/C=C/c1n[nH]c3cnc(cc13)-c1cnn(C)c1O[C@H](C)CN(C(C)C)C2
8.35
CCOc1nn([C@@H](C)CO)c2c1/C=C/c1n[nH]c3cnc(cc13)-c1c(C)nn(C)c1O[C@H](C)CN(CC)C2
9.39
CCOc1nn([C@@H](C)CO)c2c1/C=C/c1n[nH]c3cnc(cc13)-c1c(C)nn(C)c1O[C@@H](C)CN(C)C2
9.26
CCOc1nn(CCO)c2c1/C=C/c1n[nH]c3cnc(cc13)-c1cnn(C)c1O[C@@H](C)CN(C1CC1)C2
9.19
CCOc1nn(CCO)c2c1/C=C/c1n[nH]c3cnc(cc13)-c1c(C)nn(C)c1OC[C@H](C)N(CC)C2
9.18

// for each molecule below, give its pIC50
1. CCOc1nn(CCO)c2c1/C=C/c1n[nH]c3c(C)nc(cc13)-c1cnn(C)c1O[C@@H](C)CN(C)C2
2. CCNc1nn([C@@H](C)CO)c2c1/C=C/c1n[nH]c3c(C)nc(cc13)-c1c(C)nn(C)c1O[C@@H](C)CN(C)C2

# output
[9.05, 8.91]

====

Measurement target: EGFR (D770_N771insNPG) (Homo sapiens, UniProt P00533, INS770NPG)
Sequence (P00533 with tags, fused parts or gaps INS770NPG limits assumed): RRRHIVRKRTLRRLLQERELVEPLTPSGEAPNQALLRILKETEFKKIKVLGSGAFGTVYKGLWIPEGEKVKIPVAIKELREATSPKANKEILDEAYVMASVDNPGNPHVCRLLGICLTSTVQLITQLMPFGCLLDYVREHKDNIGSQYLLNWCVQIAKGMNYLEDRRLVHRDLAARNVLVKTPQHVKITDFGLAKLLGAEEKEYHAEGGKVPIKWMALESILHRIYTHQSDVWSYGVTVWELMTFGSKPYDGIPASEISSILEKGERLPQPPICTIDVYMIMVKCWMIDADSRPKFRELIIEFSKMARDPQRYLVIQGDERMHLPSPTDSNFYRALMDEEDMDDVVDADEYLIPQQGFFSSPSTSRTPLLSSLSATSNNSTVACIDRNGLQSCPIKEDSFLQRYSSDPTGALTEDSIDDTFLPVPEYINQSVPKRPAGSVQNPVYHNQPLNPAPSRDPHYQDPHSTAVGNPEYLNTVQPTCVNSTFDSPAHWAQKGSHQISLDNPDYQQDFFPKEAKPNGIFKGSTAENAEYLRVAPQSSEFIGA
Procedure details: HotSpot radiometric kinase assay, inhibition of EGFR (D770_N771insNPG) mutant
Test conditions: 33P ATP, room temperature, 120 m
Reported metric: pIC50
One number for each entry, as −log10 of the molar value.

These recorded examples may help you get a feel for the data.
CCN1Cc2c(c(OC(C)C)nn2CCO)/C=C/c2n[nH]c3cnc(cc23)-c2cnn(C)c2O[C@H](C)C1
9.40
CCN1Cc2c(c(OCC#N)nn2[C@@H](C)CO)/C=C/c2n[nH]c3cnc(cc23)-c2c(C)nn(C)c2O[C@@H](C)C1
9.16
CCOc1nn([C@@H](C)CO)c2c1/C=C/c1n[nH]c3cnc(cc13)-c1c(C)nn(C)c1O[C@H](C)CN(C)C2
9.62
CCOc1nn(CCO)c2c1/C=C/c1n[nH]c3c(C)nc(cc13)-c1cnn(C)c1O[C@@H](C)CN(C)C2
9.54
CCOc1nn([C@@H](C)CO)c2c1/C=C/c1n[nH]c3cnc(cc13)-c1c(C)nn(C)c1OCCN(C)C2
8.95
CCc1nn(CCO)c2c1/C=C/c1n[nH]c3cnc(cc13)-c1c(C)nn(C)c1O[C@@H](C)CN(C)C2
9.11
CCc1nn(CCO)c2c1/C=C/c1n[nH]c3cnc(cc13)-c1c(C)nn(C)c1O[C@H](C)CN(CC)C2
8.86
CCOc1nn([C@@H](C)CO)c2c1/C=C/c1n[nH]c3cnc(cc13)-c1c(C)nn(C)c1O[C@@H](C)CN(C)C2
9.57
CCOc1nn(CCO)c2c1/C=C/c1n[nH]c3cnc(cc13)-c1c(C)nn(C)c1O[C@@H](C)CN(C)C2
9.77
CCOc1nn([C@@H](C)CO)c2c1/C=C/c1n[nH]c3c(C)nc(cc13)-c1c(C)nn(C)c1O[C@H](C)[C@H]1CCCN1C2
10.00

// for each compound below, give its pIC50
1. CCOc1nn(CCO)c2c1/C=C/c1n[nH]c3cnc(cc13)-c1c(C)nn(C)c1O[C@H](C)CN(C(C)C)C2
2. CCOc1nn(CCO)c2c1/C=C/c1n[nH]c3cnc(cc13)-c1cnn(C)c1O[C@@H](C)CN(CC)C2
3. CCOc1nn([C@@H](C)CO)c2c1/C=C/c1n[nH]c3cnc(cc13)-c1c(C)nn(C)c1O[C@@H](C)CN(C1CC1)C2
4. CCN1Cc2c(c(OCC#N)nn2CCO)/C=C/c2n[nH]c3cnc(cc23)-c2c(C)nn(C)c2O[C@H](C)C1

# output
8.82
9.96
9.74
9.85

====

Measurement target: pEGFR, PC-9 cells (d746-750 EGFR) (Homo sapiens, UniProt P00533, DEL746-750)
Construct: pEGFR (Tyr1068) TR-FRET
Sequence (P00533 with tags, fused parts or gaps DEL746-750): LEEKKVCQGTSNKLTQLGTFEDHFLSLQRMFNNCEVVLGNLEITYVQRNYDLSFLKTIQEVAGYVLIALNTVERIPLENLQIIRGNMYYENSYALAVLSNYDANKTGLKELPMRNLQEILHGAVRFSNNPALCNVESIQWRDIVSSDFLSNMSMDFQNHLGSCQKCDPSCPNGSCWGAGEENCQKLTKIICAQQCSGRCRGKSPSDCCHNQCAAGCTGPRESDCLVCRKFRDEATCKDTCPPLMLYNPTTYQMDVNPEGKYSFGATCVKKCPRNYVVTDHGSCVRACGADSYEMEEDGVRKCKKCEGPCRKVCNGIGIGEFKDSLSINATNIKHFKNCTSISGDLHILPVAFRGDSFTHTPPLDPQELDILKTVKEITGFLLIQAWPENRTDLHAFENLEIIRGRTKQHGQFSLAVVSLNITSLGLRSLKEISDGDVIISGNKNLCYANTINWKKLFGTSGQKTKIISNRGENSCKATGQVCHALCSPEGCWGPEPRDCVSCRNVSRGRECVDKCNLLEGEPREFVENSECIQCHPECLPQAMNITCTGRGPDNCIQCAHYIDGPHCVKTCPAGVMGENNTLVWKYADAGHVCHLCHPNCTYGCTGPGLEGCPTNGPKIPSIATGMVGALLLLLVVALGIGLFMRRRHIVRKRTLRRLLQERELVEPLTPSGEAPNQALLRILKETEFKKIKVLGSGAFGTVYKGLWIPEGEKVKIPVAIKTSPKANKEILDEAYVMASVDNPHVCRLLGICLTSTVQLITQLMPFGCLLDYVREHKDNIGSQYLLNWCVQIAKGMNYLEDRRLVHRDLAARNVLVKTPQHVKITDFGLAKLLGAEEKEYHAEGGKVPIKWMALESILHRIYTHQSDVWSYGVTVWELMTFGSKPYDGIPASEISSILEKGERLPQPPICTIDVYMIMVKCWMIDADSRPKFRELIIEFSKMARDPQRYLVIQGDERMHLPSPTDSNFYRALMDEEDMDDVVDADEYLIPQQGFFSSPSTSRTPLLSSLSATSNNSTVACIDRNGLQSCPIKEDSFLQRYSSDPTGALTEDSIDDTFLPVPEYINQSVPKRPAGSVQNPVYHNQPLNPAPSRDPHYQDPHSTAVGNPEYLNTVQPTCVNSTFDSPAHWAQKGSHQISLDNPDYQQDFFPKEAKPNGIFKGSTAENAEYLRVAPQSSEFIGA
Procedure details: Cellular EGFR phosphorylation assay (LANCE Ultra TR-FRET) in PC-9 cells
Format: cell-based
Test conditions: 4 hours at 37° C., read-out: PC-9 pEGFR IC50
Procedure: Cellular EGFR Phosphorylation Assays EGFR phosphorylation assays were conducted in NSCLC cells with EGFR activation mutations. […] EGFR phosphorylation was measured using phospho-EGFR (Try1068) LANCE Ultra TR-FRET Detection Kit (TRF4015M) from PerkinElmer according to manufacturer's instructions. […] After 4-6 hours of incubation at room temperature, plates were then read on a TECAN Sparks multimode microplate reader. […]
Reported metric: pIC50
Numbers only, as −log10 of the molar value.

CCOc1nn([C@@H](C)CO)c2c1/C=C/c1n[nH]c3c(C)nc(cc13)-c1c(C)nn(C)c1O[C@@H](C)CN(C)C2 [Ex. 54]
9.17

// for each compound below, give its pIC50
1. Cc1nn(C)c2c1-c1cc3c(n[nH]c3cn1)/C=C/c1c(C#N)nn([C@@H](C)CO)c1CN(C)C[C@H](C)O2 [Ex. 48]
2. CCOc1nn(CCO)c2c1/C=C/c1n[nH]c3cnc(cc13)-c1cnn(C)c1O[C@H](C)CN(CC)C2 [Ex. 6]
3. CCOc1nn(CCO)c2c1/C=C/c1n[nH]c3cnc(cc13)-c1c(C)nn(C)c1O[C@H](C)CN(CC)C2 [Ex. 17]

# output
[8.50, 8.16, 8.73]

// for each compound below, give its pIC50
1. CCOc1nn(C[C@H](C)O)c2c1/C=C/c1n[nH]c3c(C)nc(cc13)-c1c(C)nn(C)c1O[C@@H](C)CN(C)C2 [Ex. 90]
2. CCN1Cc2c(c(OCC#N)nn2[C@@H](C)CO)/C=C/c2n[nH]c3cnc(cc23)-c2c(C)nn(C)c2O[C@@H](C)C1 [Ex. 67]
3. Cc1nn([C@@H](C)CO)c2c1/C=C/c1n[nH]c3c(C)nc(cc13)-c1c(C)nn(C)c1O[C@@H](C)CN(C)C2 [Ex. 57]
4. CCNc1nn([C@@H](C)CO)c2c1/C=C/c1n[nH]c3cnc(cc13)-c1c(C)nn(C)c1O[C@@H](C)CN(C)C2 [Ex. 93]
5. CCOc1nn(CCO)c2c1/C=C/c1n[nH]c3cnc(cc13)-c1c(C)nn(C)c1O[C@H](C)CN(C(C)C)C2 [Ex. 1]

# output
[8.90, 8.53, 7.95, 8.69, 8.51]
